Let's look at some molecules and their measured activation at 1 µM.
target: GLP-1 receptor (Homo sapiens, UniProt P43220); assay: FLIPR calcium flux assay, agonist format, GLP-1; type: cell-based; details: Emax of reference ligand Glucagon as 100%
Sequence (P43220 24-463): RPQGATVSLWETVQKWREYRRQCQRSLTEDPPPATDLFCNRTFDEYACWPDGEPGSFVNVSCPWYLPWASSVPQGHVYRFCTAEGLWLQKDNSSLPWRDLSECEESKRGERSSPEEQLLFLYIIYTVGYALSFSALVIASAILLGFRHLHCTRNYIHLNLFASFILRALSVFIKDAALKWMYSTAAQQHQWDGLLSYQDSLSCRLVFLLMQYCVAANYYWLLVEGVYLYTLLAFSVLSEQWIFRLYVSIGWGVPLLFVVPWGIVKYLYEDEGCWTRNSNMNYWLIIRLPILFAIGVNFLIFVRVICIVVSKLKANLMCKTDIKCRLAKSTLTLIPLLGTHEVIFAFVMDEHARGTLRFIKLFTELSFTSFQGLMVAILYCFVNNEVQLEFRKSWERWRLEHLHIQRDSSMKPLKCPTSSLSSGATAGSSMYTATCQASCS

molecule | activation at 1 µM [%]
CC(C)Cc1ccc([C@H](C)C(=O)N(C)CCC(Oc2ccc(C(F)(F)F)cc2)c2ccccc2)cc1 (stereo partly shown) | 44.6
C[C@H](C(=O)N(C)CCC(Oc1ccc(C(F)(F)F)cc1)c1ccccc1)c1cccc(C(=O)c2ccccc2)c1 (stereo partly shown) | -2.4
CCc1ccc(C(C)C(=O)N(C)CC[C@H](Oc2ccc(C(F)(F)F)cc2)c2ccccc2)cc1 (stereo partly shown) [Compound 34b] | 0.2
CC(C)Cc1cccc(C(C)C(=O)N(C)CC[C@@H](Oc2ccc(C(F)(F)F)cc2)c2ccccc2)c1 (stereo partly shown) [Compound 35a] | -0.9
C[C@H](C(=O)NCC[C@@H](Oc1ccc(C(F)(F)F)cc1)c1ccccc1)c1cccc(C(=O)c2ccccc2)c1 | 38.6
CCc1ccc(C(C)C(=O)N(C)CC[C@@H](Oc2ccc(C(F)(F)F)cc2)c2ccccc2)cc1 (stereo partly shown) [Compound 34a] | -0.8
CC(C(=O)N(C)CC[C@H](Oc1ccc(C(F)(F)F)cc1)c1ccccc1)c1ccc(CN(C)C)cc1 (stereo partly shown) [Compound 25b] | -3.3

From: patent US20100292289A1
